Listing of entries alongside the reported CC50.
- Test system: HepG2 or HepG2.117 cells
- assay.overview: Cytotoxicity, ATPlite Luminescence Assay
- Assay type: cell-based, human
- test.context: 3-days incubation unless marked with *
metric.name: CC50

- molecule: "CC(c1ncccn1)N1C[C@@H](C)n2nc3c(c2C1=O)CN(C(=O)c1ccc(Cl)c(Cl)c1)[C@H](C)C3 (single isomer, unassigned) [Compound 39B]"
  recorded.value: "> 25 µM"
- molecule: "Cc1nnn(-c2ccc(C(C)N3C[C@@H](C)n4nc5c(c4C3=O)CN(C(=O)c3ccc(Cl)c(Cl)c3)[C@H](C)C5)cc2)n1 (single isomer, unassigned) [Compound 22B]"
  recorded.value: "> 50 µM"
- molecule: "CC(c1ccc(S(N)(=O)=O)cc1)N1C[C@@H](C)n2nc3c(c2C1=O)CN(C(=O)c1ccc(Cl)c(Cl)c1)[C@H](C)C3 (single isomer, unassigned) [Compound 16B]"
  recorded.value: "> 50 µM"
